ASSAY TEXT: Dog PK experiment for tablets
Format: in vivo
SETUP CONDITIONS: plasma, beagle dogs (male, fasted), oral, dose 5 mg/kg
RECORDED ENDPOINT: Cmax (ng/mL)
State the answer as a number, implicitly in ng/mL.

Cmax measured on C/C=C/c1cc(Nc2cc(N3CCN(C)CC3)nc(Oc3cc(F)c4[nH]c(C)cc4c3F)n2)n[nH]1 [API] = 22

* * *

ASSAY TEXT: Solubility testing of solid dispersions in media with different pH values (shaker, 24 hours)
Type: physicochemical
SETUP CONDITIONS: simulated gastric fluid, thermodynamic from solid; 0.1mol/L HCl, 2h, API alone, sample concentration not given
RECORDED ENDPOINT: solubility at 2 h (µg/mL)
State the answer as a number, implicitly in µg/mL.

solubility at 2 h measured on `C/C=C/c1cc(Nc2cc(N3CCN(C)CC3)nc(Oc3cc(F)c4[nH]c(C)cc4c3F)n2)n[nH]1` = 50
